Reference source for all entries: paper PMC3626704

Molecular target: T1, 6-Helix-Fd (HIV-1 gp41 (HXB2-like, printed sequence), stabilised)
T1 construct: also called post-fusion six-helix bundle mimic
T1 chain: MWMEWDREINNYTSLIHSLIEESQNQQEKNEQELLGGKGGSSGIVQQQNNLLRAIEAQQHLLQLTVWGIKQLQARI
Experiment: ELISA; competitive phage ELISA, on-phage bivalent scFv: binding to immobilised 5-Helix inhibited by free 5-Helix or free 6-Helix-Fd (concentrations for the trimer); apparent
Details: one partner purified
# IC50 annotations
Expressed in nM, but write only the number.

// worked examples, IC50 included
25G8 bivalent scFv on phage (scFv, V domains shown) VH: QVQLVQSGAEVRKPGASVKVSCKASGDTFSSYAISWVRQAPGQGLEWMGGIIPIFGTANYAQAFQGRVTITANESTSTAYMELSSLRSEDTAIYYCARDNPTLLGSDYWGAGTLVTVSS VL: DIQMTQSPSTLSASIGDRVTITCRASESIGRSLAWYQQKPGKAPKLLIYRASRLASGAPSRFSGSGSGTDFTLTISSLQPDDFATYYCQQSSTTPLTFGGGTKLEIK ... 300
25F1 bivalent scFv on phage (scFv, V domains shown) VH: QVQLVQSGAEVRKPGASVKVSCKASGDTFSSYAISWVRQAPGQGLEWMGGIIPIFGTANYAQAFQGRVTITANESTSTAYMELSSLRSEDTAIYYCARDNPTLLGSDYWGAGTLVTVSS VL: DIQMTQSPSTLSASIGDRVTITCRASEGINNSLAWYQQKPGKAPKLLISRASRLASGAPSRFSGSGSGTDFTLTISSLQPDDFATYYCQQYSSTPHTFGGGTKLEIK ... 40
D5 bivalent scFv (biv-scFv) displayed on M13 phage (scFv, V domains shown) VH: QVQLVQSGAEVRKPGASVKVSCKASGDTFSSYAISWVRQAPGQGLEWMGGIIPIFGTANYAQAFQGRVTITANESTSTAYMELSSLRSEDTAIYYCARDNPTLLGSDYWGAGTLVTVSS VL: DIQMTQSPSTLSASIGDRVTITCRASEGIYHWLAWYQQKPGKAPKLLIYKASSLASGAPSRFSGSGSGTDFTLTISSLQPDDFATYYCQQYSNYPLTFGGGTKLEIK ... 11
25F10 bivalent scFv on phage (scFv, V domains shown) VH: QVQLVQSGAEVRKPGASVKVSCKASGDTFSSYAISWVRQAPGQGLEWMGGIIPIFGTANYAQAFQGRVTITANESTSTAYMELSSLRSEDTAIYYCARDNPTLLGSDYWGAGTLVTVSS VL: DIQMTQSPSTLSASIGDRVTITCRASEGIHNRLAWYQQKPGKAPKLLISHASNLASGAPSRFSGSGSGTDFTLTISSLQPDDFATYYCQQYSNYPLTFGGGTKLEIK ... 22

Let's switch to this binder now.
Exercise: Find the recorded IC50 belonging to 25C10 bivalent scFv on phage (scFv, V domains shown) VH: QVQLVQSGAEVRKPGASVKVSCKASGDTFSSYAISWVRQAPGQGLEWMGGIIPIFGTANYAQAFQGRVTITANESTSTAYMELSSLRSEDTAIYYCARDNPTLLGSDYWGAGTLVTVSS VL: DIQMTQSPSTLSASIGDRVTITCRASENIYGNLAWYQQKPGKAPKLLISRASRLASGAPSRFSGSGSGTDFTLTISSLQPDDFATYYCQQRYTYPLTFGGGTKLEIK and report it.
Key: 28
